# run_description: NCI Yeast Anticancer Drug Screen. Data for the bub3 strain (AID 167)
# measurement_conditions: S. cerevisiae bub3 mutant strain, at 50.0 µM, active compounds read high
This is part of a sample that, as a whole, favours compounds with a hit. Of some 79,000 tested, about 15% had one in any assay.
Each entry below carries its reported growth inhibition.
Number in %, nothing else.

Look over these answered cases.
Cc1cccc(OCC2=NCCN2)c1C    -4.55
CNC(=O)Oc1cccc(NC(=O)OC(C)(C)C)c1    29.1
[Cl][Hg][c]1cccc(I)c1N=Nc1ccccc1    2.25
COc1cccc(OC)c1CCN    -24.8
O=C(Nc1ccc(N(CCCl)CCCl)cc1)Oc1ccc(C(=O)O)cc1    15.2
Cc1nc2ccc(Br)cc2c(=O)n1-c1ccc(N)cc1    -8.2
O=[N+]([O-])c1cc(-c2ccccc2)ccc1O    96.2
O=C1NC(=O)C(C(=O)C(=O)Nc2cc(Cl)ccc2Cl)C(=O)N1    -22.4
C[CH2][Sn]([O][Sn]([Cl])([CH2]C)[c]1ccccc1)[c]1ccccc1 (configuration not stated)    78.1
C#CCN1C(=O)CN2C(Cl)(Cl)C2(c2ccccc2)c2cc(Cl)ccc21 (configuration not stated)    3.35

Query (compound): "C(#CCN1CCCCCC1)CN1CCCCCC1" ; field requested: growth inhibition
-14.1

----------
Each entry below carries its reported growth inhibition.
# run_description: NCI Yeast Anticancer Drug Screen. Data for the rad50 strain (AID 155);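 also: 0% = growth of vehicle-only cultures of the same strain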
# measurement_conditions: S. cerevisiae rad50 strain growth inhibition; at 50.0 µM (retest, dose inferred, filed as 5.0); active compounds read high
This is part of a sample that, as a whole, favours compounds with a hit. Of some 79,000 tested, about 15% had one in any assay.
Number in %, nothing else.

Look over these answered cases.
O=c1[nH]c2ccccc2n1C1CCN(CCCC(c2ccc(F)cc2)c2ccc(F)cc2)CC1    34
CCCCSc1ccc(C(SCCN(CC)CC)c2ccccc2)cc1 (configuration not stated)    99
CCCCCCCCCCC(=O)O.[Pb]    2
COc1c(Cl)[c]([Hg][O]C(C)=O)c(NCC(C)=O)c(OC)[c]1[Hg][O]C(C)=O    94

Query (compound): "COc1ccc2nc3ccccc3c(NCCCCN(C)CCCl)c2c1" ; field requested: growth inhibition
86

Query (compound): "CC(=O)OCC1(N2CCCC2)CCCCC1" ; field requested: growth inhibition
2

Query (compound): "NCCCN1CCN(CCCN2CC2)CC1" ; field requested: growth inhibition
84

Query (compound): "O=[N+]([O-])c1ccc(Br)c([N+](=O)[O-])c1" ; field requested: growth inhibition
98

Query (compound): "CCCCOOC(=O)c1ccccc1C(=O)OOCCCC" ; field requested: growth inhibition
99

----------
# run_description: NCI Yeast Anticancer Drug Screen. Data for the cln2 rad14 strain (AID 165);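 also: 0% = growth equal to vehicle treated cultures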
# measurement_conditions: S. cerevisiae cln2 rad14 strain, at 50.0 µM, active compounds read high
Compounds without any hit were thinned out: in the full panel of roughly 79,000, 15% have a hit.
measured_quantity: growth inhibition (%)
Number in %, nothing else.

NNC(=S)NN    -15.4

Query (compound): "CCNC(=O)OOC(C)(C)C" ; field requested: growth inhibition
-17.8

Query (compound): "CCCC(=O)O.CCCC(=O)O.CCCC(=O)O.CCCC(=O)O.[Rh].[Rh]" ; field requested: growth inhibition
43.5

Query (compound): CC1CN1P1(N2CC2C)=NP(N2CC2C)(N2CC2C)=NP(N2CC2C)(N2CC2C)=N1 (configuration not stated) ; field requested: growth inhibition
15.7

Query (compound): "O=C(O)Cc1ccc([N+](=O)[O-])cc1[N+](=O)[O-]" ; field requested: growth inhibition
-27.2

Query (compound): "CN(C)P(N)(=S)N(C)C" ; field requested: growth inhibition
-15.8

Query (compound): "O=C(O)[C@@H](Cl)[C@@H](Cl)C(=O)O" ; field requested: growth inhibition
6.7

Query (compound): Cc1ccc([As]=[As]c2ccc(C)cc2N)c(N)c1 (configuration not stated) ; field requested: growth inhibition
-9.95

Query (compound): CCOC(=O)C1C(=O)CN2CCc3c([nH]c4ccccc34)C12C(=O)OCC (configuration not stated) ; field requested: growth inhibition
15.6

Query (compound): "C1CN1[PH+](N1CC1)N1CC1.C1CN1[PH+](N1CC1)N1CC1.[I][Pt][I]" ; field requested: growth inhibition
21.8

Query (compound): "O=C(O)c1cc(I)cc(I)c1I" ; field requested: growth inhibition
-70.2

Query (compound): "CCCCC1(CCS)C(=O)NC(=O)NC1=O" ; field requested: growth inhibition
-10.1

----------
# run_description: NCI Yeast Anticancer Drug Screen. Data for the mlh1 rad18 strain (AID 175)
# measurement_conditions: S. cerevisiae mlh1 rad18 strain growth inhibition; at 50.0 µM
About 79,000 compounds went through this panel and 15% of them were active in at least one assay; those are over-represented in the sample as a whole. Calls of active or inactive are those of the source. No stated cut-off is given here; in the data, active means growth inhibition above about 70%; inactive means the rest.
Give your call using only these classes: Yes = active, No = inactive

CC(C)(NC1=NCCO1)c1ccccc1    No
Cc1nn(C)pc1P(C)(=S)n1nc(N(C)C)np1 (stereo not given)    No
CC12CC[C]([Hg][I])(CC1)C2(C)C    Yes
C#CC(/C=C/Cl)(CC)OC(N)=O (stereo not given)    No
O=C([CH-]C(=O)c1ccccc1)c1ccccc1.O=C([CH-]C(=O)c1ccccc1)c1ccccc1.O=C([CH-]C(=O)c1ccccc1)c1ccccc1.[OH3+].[Y+3]    Yes
CCOP(=O)(OCC)/C(C#N)=C/c1ccc(Br)cc1    Yes
C/C=C/c1cc2n(c1)C(=O)c1cc(OC3OC(C)C(NC)C(C)(O)C3O)c(C)c(O)c1NC2O (stereo not given)    No
Oc1c(O)c(Br)c(Br)c(Br)c1Br    Yes

Which result was noted for this compound in the test: "CN(C=O)C(=S)[S][Sb]([S]C(=S)N(C)C=O)[S]c1nc2ccc(N=Nc3ccc(NS(=O)(=O)c4ccc(NC(=O)C(N5CC5)(N5CC5)N5CC5)cc4)cc3)cc2s1"
Yes

Which result was noted for this compound in the test: "C1CN1Sc1nc(SN2CC2)nc(SN2CC2)n1"
No

Which result was noted for this compound in the test: "N/N=C(\N)c1nn[nH]n1"
No

Which result was noted for this compound in the test: "O=c1cccc2n1CC1CNC[C@H]2C1"
No

Which result was noted for this compound in the test: "CCN(CCCl)c1cc(CN(C)C)cc(NC(=O)c2ccc(C(=O)Nc3ccccc3)cc2)c1"
No

Which result was noted for this compound in the test: "Oc1c(Cl)cc(Cl)c2ccccc12.[Cu+2]"
Yes

Which result was noted for this compound in the test: "[Cl][Hg][c]1ccco1"
Yes

Which result was noted for this compound in the test: "C/C=C1/C(=O)O[C@]23C=C[C@@H]4C(C(=O)OC)=CO[C@H](O[C@@H]12)[C@@H]43"
No

Which result was noted for this compound in the test: "N#CCC[CH2][Sn]([Br])([Br])[c]1ccccc1"
No

Which result was noted for this compound in the test: "CCC(=O)C1(c2ccccc2)CCN(C)CC1"
No

Which result was noted for this compound in the test: "Nc1ccc(C(=O)O)c(C(=O)O)c1.[Cl][Sn]([Cl])([Cl])[Cl]"
No

Which result was noted for this compound in the test: "[Pd].[Pd].[S-]CC[S-].[S-]CC[S-].c1ccc([PH+](c2ccccc2)c2ccccc2)cc1.c1ccc([PH+](c2ccccc2)c2ccccc2)cc1"
No

Which result was noted for this compound in the test: "CCN1CCC(OC(=O)c2ccccc2)(c2nccc3ccccc23)CC1"
No

Which result was noted for this compound in the test: "N#C[CH2][Sn]([I])([c]1ccccc1)[c]1ccccc1"
No

Which result was noted for this compound in the test: Nc1ccc([As]=[As]c2ccc(N)cc2)cc1 (stereo not given)
Yes

Which result was noted for this compound in the test: COC(=O)N/N=C(/CCN1CCCC1)CC(c1ccccc1)c1c(O)c2ccccc2oc1=O (stereo not given)
No

Which result was noted for this compound in the test: "C[CH2][Pb]([CH2]C)([CH2]C)[n]1ccnc1"
No

Which result was noted for this compound in the test: "CCOP(=O)(CN(CCO)CCO)OCC"
No

----------
# run_description: NCI Yeast Anticancer Drug Screen. Data for the cln2 rad14 strain (AID 165);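 also: 0% = growth equal to vehicle treated cultures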
# measurement_conditions: S. cerevisiae cln2 rad14 strain, at 5.0 µM (retest, dose inferred, filed as 0.5), active compounds read high
About 79,000 compounds went through this panel and 15% of them were active in at least one assay; those are over-represented in the sample as a whole.
Each entry below carries its reported growth inhibition.
Number in %, nothing else.

Look over these answered cases.
CCO[C@@H]([CH2][Hg][Cl])[C@](C)([CH2][Hg][Cl])OCC    98
N#CC1CC[CH-]CC1.[Cl-].[Cl-].[Cl-].[Cl-].[Cl-].[Sb+5].c1ccncc1    11
O=C1C(CCl)(CCl)CCC12CNC(Cl)(Cl)C2 (stereo not given)    1
COc1cc(/C=C(/C)[N+](=O)[O-])c([N+](=O)[O-])cc1OC    3
C#CC1(OC(C)=O)CCC2C3CC=C4C=C(OC(C)=O)CCC4(C)C3CCC21C (stereo not given)    10

Query (compound): COC12c3c(C)cc(O)c4c(=O)occ(c34)C(=O)C1C13COC(=O)c4c(O)cc(C)c(c41)C(=O)C2C3OC(C)=O (stereo not given) ; field requested: growth inhibition
63

Query (compound): O=P1(N2CCOCC2)OC(c2ccccc2)=CCN1c1ccccc1 (stereo not given) ; field requested: growth inhibition
-1

Query (compound): CCC(C)c1cnc(CC(C)C)c(=O)n1O (stereo not given) ; field requested: growth inhibition
68

Query (compound): COC(=O)C1c2c(C)cc3n2C(C=CC3)C1C(=O)OC (stereo not given) ; field requested: growth inhibition
67

Query (compound): "Oc1c(Cl)cc(Cl)c2ccccc12.[Cu+2]" ; field requested: growth inhibition
-1
